Task for the reader: assign each of the following molecules its reported TGI.
Test system: UACC-257 melanoma
Test: NCI tumour cell line growth inhibition, 48 h
Give just the number in µM; leave the unit off.

Bench note: what TGI did CCOc1ccccc1[C@H]1C(C(=O)c2ccc(Cl)cc2)C2(N[C@@H]1c1ccccc1)C(=O)Nc1ccc(Br)cc12 (some centres undefined) show?
17.6

Quick one: TGI of "CCN1CCN(Cc2ccc(C(=O)Nc3cccc(C#Cc4cccc5[nH]nc(N)c45)c3)cc2C(F)(F)F)CC1" ?
2.86

Item under review: "COc1cc(OC)c2c3nc4cc(C)c(C)cc4nc3n(CCN(C)C)c2c1" . Reported TGI?
31.9

====

Please provide measured GI50 for the entries that follow.
System: MCF7 breast
Assay: NCI tumour cell line growth inhibition, 48 h

Name the recorded GI50 for "CCN1CCN(Cc2ccc(C(=O)Nc3cccc(C#Cc4cccc5[nH]nc(N)c45)c3)cc2C(F)(F)F)CC1" .
1.61 µM

Form field: reported GI50 of CCOc1ccccc1[C@H]1C(C(=O)c2ccc(Cl)cc2)C2(N[C@@H]1c1ccccc1)C(=O)Nc1ccc(Br)cc12 (some centres undefined)
6.45 µM

For the compound "O=S(=O)(Nc1cccc(-n2cnc3cc(-c4ccc(O)cc4)ccc32)c1)C1CC1" , what GI50 is on record?
1.96 µM

So what does the record say about GI50 for "COc1cc(OC)c2c3nc4cc(C)c(C)cc4nc3n(CCN(C)C)c2c1" ?
4.75 µM

====

Tested on: MDA-MB-468 breast
Assay: NCI tumour cell line growth inhibition, 48 h; in the data active = GI50 below about 0.43 µM; inactive = the rest
Tick one outcome: label 1 (active), label 0 (inactive)

Just curious, what result did "CN(C)CCCOc1cccc(NC2=C(Cl)C(=O)C(Nc3cccc(OCCCN(C)C)c3)=C(Cl)C2=O)c1" get here?
label 1

// outcome(item) with item = "C=C1C(=O)O[C@H]2[C@H]1CC/C(Cn1cc(-c3ccc(N)cc3)nn1)=C\CC[C@@]1(C)O[C@@H]21"
label 0

Hey, what did the test say about "COc1ccc2[nH]cc(-c3cc(N)n4nc(-c5c[nH]c6ccc(OC)cc56)cc4n3)c2c1" ?
label 0

Which outcome was assigned to COc1cc(C2=NN(C(C)=O)C(c3cc(OC)c(OC)c(OC)c3)C2)ccc1O (configuration not stated) in this test?
label 1

Kindly provide the recorded test outcome for the following molecule: COc1cccc(CNc2ncnc3c2ncn3C2OC(CO)C(O)C2O)c1O (configuration not stated)
label 1

Which outcome was entered for the molecule "CCSc1ccc([C@@H]2[C@@H](O)C(=O)N2c2cc(OC)c(OC)c(OC)c2)cc1" in this test?
label 1

What classification did "Cc1ccc2c(n1)C(=O)C(Cl)=C(Nc1ccc(C(=O)OC(C)(C)C)cc1)C2=O" end up with in this test?
label 0

====

For each record, write down the corresponding GI50.
Test system: SK-MEL-5 melanoma
Assay: NCI tumour cell line growth inhibition, 48 h

Requested field: GI50. Item: C=C1CCC2C3(C)COC(c4ccccc4F)OC3CCC2(C)C1CC(O)C1=CCOC1=O (centres undefined)
17.1 µM

Reported GI50, compound "O=S(=O)(Nc1cccc(-n2cnc3cc(-c4ccc(O)cc4)ccc32)c1)C1CC1" : ____
3.13 µM

Recorded GI50 for CCOc1ccccc1[C@H]1C(C(=O)c2ccc(Cl)cc2)C2(N[C@@H]1c1ccccc1)C(=O)Nc1ccc(Br)cc12 (some centres undefined) , please?
5.41 µM

Request the reported GI50 associated with "COc1cc(OC)c2c3nc4cc(C)c(C)cc4nc3n(CCN(C)C)c2c1"
16.1 µM

====

Test system: MDA-MB-468 breast
Assay: NCI tumour cell line growth inhibition, 48 h
outcome_measure: TGI (µM)
Numeric answer only, unit µM assumed.

Please report the recorded TGI for COc1cc(OCc2cccc(-c3ccccc3)c2C)cc(OC)c1CN1CCCCC1C(=O)NCCOCCOCCN (stereo not drawn) .
3.43

TGI for COc1cc(F)ccc1-c1cc(Nc2cc(CS(C)(=N)=O)ccn2)ncc1F (stereo not drawn) ?
0.445

Field request: TGI | item: "CN(C)CCCOc1cccc(NC2=C(Cl)C(=O)C(Nc3cccc(OCCCN(C)C)c3)=C(Cl)C2=O)c1"
0.458

TGI for "CCN1[C@@H](C(=O)NC23CCC(C(=O)O)(CC2)CC3)[C@H](c2cccc(Cl)c2F)[C@]2(C(=O)Nc3cc(Cl)ccc32)C12CCCCC2" ?
6.68

Would you kindly share the measured TGI for "Cc1ccc(S(=O)(=O)c2nc(-c3ccccc3)oc2S(C)(=O)=O)cc1" ?
3.84

Would you mind telling me what TGI value was observed for "CCn1cc(/C=C2\Oc3cc(OCC#N)ccc3C2=O)c2cc(OC)ccc21" ?
13.7

Value lookup for TGI; key = C/C(=C(/c1ccccc1)c1ccc(OCC(O)CNCCN2CCOCC2)cc1)c1ccccc1 (stereo not drawn)
2.85

Given the compound C=C1CCC2C3(C)COC(c4ccccc4F)OC3CCC2(C)C1CC(O)C1=CCOC1=O (stereo not drawn) , what is its reported TGI?
19.1

Reported TGI for "CC(=O)c1ccc2c(c1)N(CCCN1CCN(CCO)CC1)c1ccccc1S2" : what is it?
3.21

Need TGI, item "COc1ccc2c(c1)C(=O)/C(=C/c1cccc(OCC(=O)Nc3nc(C)c(C)s3)c1)O2"
0.0176

# get_value(readout='TGI', item= "CCOC(=O)c1sc(-c2ccc(OS(=O)(=O)C[C@]34CCC(CC3=O)C4(C)C)c(C=O)c2)nc1C" )
3.3

If you can, please state the reported TGI value of O=C(CC1(O)C(=O)Nc2ccc(F)cc21)c1ccc(C(=O)NCC2CCC3(CC2)OOC2(CCCCC2)OO3)cc1 (stereo not drawn) .
21.6

====

Test system: U251 CNS
Assay: NCI tumour cell line growth inhibition, 48 h
outcome_measure: TGI (µM)
Numbers only; they are read as µM.

For the compound "O=S(=O)(Nc1cccc(-n2cnc3cc(-c4ccc(O)cc4)ccc32)c1)C1CC1" , what TGI is on record?
13.8

So what's the measured TGI for this one? CCOc1ccccc1[C@H]1C(C(=O)c2ccc(Cl)cc2)C2(N[C@@H]1c1ccccc1)C(=O)Nc1ccc(Br)cc12 (some centres undefined)
13.9

# lookup: TGI of "COc1cc(OC)c2c3nc4cc(C)c(C)cc4nc3n(CCN(C)C)c2c1"
28

I would be grateful if you could share the reported TGI for "CCN1CCN(Cc2ccc(C(=O)Nc3cccc(C#Cc4cccc5[nH]nc(N)c45)c3)cc2C(F)(F)F)CC1" .
2.85

====

Please respond with reported TGI for every item in the list.
Tested on: SK-OV-3 ovarian
Test: NCI tumour cell line growth inhibition, 48 h
# value in µM; strip the unit string

For "O=S(=O)(Nc1cccc(-n2cnc3cc(-c4ccc(O)cc4)ccc32)c1)C1CC1" , what is its reported TGI?
13.4

TGI for "COc1cc(OC)c2c3nc4cc(C)c(C)cc4nc3n(CCN(C)C)c2c1" ?
32.1

====

Tested on: UACC-62 melanoma
Assay: NCI tumour cell line growth inhibition, 48 h
outcome_measure: TGI (µM)
Numeric only. Scale: µM

Bench note: what TGI did "COc1cc(OC)c2c3nc4cc(C)c(C)cc4nc3n(CCN(C)C)c2c1" show?
29.1

Reported TGI for CCOc1ccccc1[C@H]1C(C(=O)c2ccc(Cl)cc2)C2(N[C@@H]1c1ccccc1)C(=O)Nc1ccc(Br)cc12 (some centres undefined) : what is it?
7.98

Which value of TGI has been reported for "O=S(=O)(Nc1cccc(-n2cnc3cc(-c4ccc(O)cc4)ccc32)c1)C1CC1" in the records?
14.3

If you can, please state the reported TGI value of "CCN1CCN(Cc2ccc(C(=O)Nc3cccc(C#Cc4cccc5[nH]nc(N)c45)c3)cc2C(F)(F)F)CC1" .
2.62

====

Tested on: MDA-MB-468 breast
Assay: NCI tumour cell line growth inhibition, 48 h; in the data active = GI50 below about 0.43 µM; inactive = the rest
Pick from active, inactive when you respond.

Which outcome was assigned to "CCN1[C@@H](C(=O)NC23CCC(C(=O)O)(CC2)CC3)[C@H](c2cccc(Cl)c2F)[C@]2(C(=O)Nc3cc(Cl)ccc32)C12CCCCC2" in this test?
inactive

Called result for "Cc1cc(CCl)c(C)cc1CCl"
active

Could you please tell me the result logged for "CCCCCCCCCc1ccc(OCCOCCOCCOCCOCCOCCOCCOCCOCCO)cc1" in this assay?
active

Which result was noted for this compound in the test: "CCCN(CCC)c1ccc(C=O)c(Cl)c1"
active

Outcome logged for "COc1cc(OC)c2sc(-c3ccc(-n4cncc4-c4ccc(OC)c(OC)c4)cc3)nc2c1" in this assay:
inactive

What did the test return for "N=c1ccc2nc3ccc(N)cc3sc-2c1" ?
inactive
